Test: protein stability index of a GFP-peptide fusion (GPS, HEK-293T) (PSI 1-6); higher = more stable;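 further: 24-mer peptide tiles fused after GFP, lentivirally expressed, FACS-sorted into six equal bins by GFP/DsRed ratio, decoded by Illumina sequencing, PSI is the read-weighted mean bin number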
Conditions: treatment: MLN4924 1 uM, 8 h; c terminus: a fixed tail appended
Please use MET whenever protein stability index is not below 3, and NOT MET whenever it is.

Sequence Text: PPPPPSPSSLGPLLPLQREPLYNW [BTBD1]
Class: MET
//
Sequence Text: LALRQGVEADINGLRRVLDELTLA [KRT15]
Class: NOT MET
//
Sequence Text: DIFPELDDILYHVKGMQRIVNQWS [DLC1]
Class: NOT MET
//
Sequence Text: QRPVSRQVTCLRTQVLEDSEDSFC [TRAF3IP2]
Class: MET
//
Sequence Text: HLIRHQITHTREEQPHGRSRRREQ [ZNF8]
Class: MET
//
Sequence Text: KEAVQNERDRISTRRSSYEDSSLP [HNF4A]
Class: MET
//
Sequence Text: IQSWDINSRRNINYRSFEPILRLL [ZER1]
Class: NOT MET
//
Sequence Text: SHWDLNHTHPSACQGQRLFEKLLQ [PLD5]
Class: NOT MET
//
Sequence Text: YPVVVAESMYGDFQEAMTHLQHKL [TENT5D]
Class: NOT MET
//
Sequence Text: PPLPGDMSTGPIAESWCYTQVKVV [SPOPL]
Class: NOT MET
//
Sequence Text: VNVDNLLAAAVVQEHSNSVGGQDT [C18orf25]
Class: MET
//
Sequence Text: PAQRSHTYTHGLGLHRRPGAGHCS
Class: MET
//
Sequence Text: FNMMEQKKRVSMILQSPAFCEELE [ADD1]
Class: MET
//
Sequence Text: AQSPGAVEEILDRENKRMADSLAS [BET1L]
Class: MET
//
Sequence Text: KMELGIDLLAYGAKAELPKYKSFN [MYOZ1]
Class: NOT MET
//
Sequence Text: VIQPALPGQPLPGASVRGLHPVQK [TRAF3IP2]
Class: MET
//
Sequence Text: TSAAALSPMSAATLGGLNPSPSEV [SMTNL2]
Class: MET
//
Sequence Text: SPIKPGDIKRGIPNYEFKLGKITF [UFD1]
Class: NOT MET
//
Sequence Text: HKRPHVDFFLEVVSQWYELVVFTA [CTDNEP1]
Class: NOT MET
//
Sequence Text: YTMLLGRPPFETTNLKETYRCIRE [PLK2]
Class: NOT MET
//
Sequence Text: PIVPKIAGDGDTSNFETYPENDWD [PRKX]
Class: MET
//
Sequence Text: NSSTWGSLKQALKGLSVEFALLAD [SNX8]
Class: NOT MET
//
Sequence Text: ADGQESTPPTPAPTSGIVGALMEV [WASL]
Class: MET
//
Sequence Text: CLQQKQVVAEAQTRVSQLGLQVEG [LRRC45]
Class: MET
//
Sequence Text: CHRHYHSMEVFTHYDLLNLNGTKV [LOXL2]
Class: NOT MET

###

In this section, each of the sequences is paired with its reported protein stability index.
Assay: protein stability index of a GFP-peptide fusion (GPS, HEK-293T) (PSI 1-6); higher = more stable
Conditions: treatment: MLN4924 1 uM, 8 h; c terminus: a fixed tail appended

Sequence Text: KYENELALRQSVEADINGLRRVLD [KRT13]
protein stability index: 3.65
//
Sequence Text: FEGFQAVSLKQEGDDQPSETDHLS [TPRG1]
protein stability index: 5.54
//
Sequence Text: RGSDLKVLEVTEESIDFDQGELAD [FBXO33]
protein stability index: 5.52
//
Sequence Text: ETPGSAVDYPLHDLVLHTNYTATV [TNXB]
protein stability index: 2.87
//
Sequence Text: RNRPSFDAILYYYQSGGRIRRPVN [KCNA3]
protein stability index: 2.58
//
Sequence Text: WMENNGHVAGEQMLEDGPHNANRG [CCDC70]
protein stability index: 5.25
//
Sequence Text: FSDLNSTRGDADMYDLPKKEDALL [EMD]
protein stability index: 4.9
//
Sequence Text: IYRKREEKRNAGNAVRSAMKSEEQ [KMT5A]
protein stability index: 4.39
//
Sequence Text: LKDDIYIRYQSFNNQSDLEKEMQK [PRIM1]
protein stability index: 4.27
//
Sequence Text: SQDALRVVSTSGEQMKVYKCEHCR [IKZF1]
protein stability index: 4.38
//
Sequence Text: MDYDSYQHYFYDYDCGEDFYRSTA [MYCL]
protein stability index: 2.51
//
Sequence Text: PMLWNPSGTPKRYSLELGKAIKQK [C22orf31]
protein stability index: 3.56
//
Sequence Text: SELSESAFGYFITACAVIILTIIC [SLC29A1]
protein stability index: 2.12
//
Sequence Text: VLELLGPSLEDLFDLCDRTFSLKT [CSNK1G3]
protein stability index: 2.36
//
Sequence Text: PGTGKTSLCKALAQKLTIRLSSRY [TRIP13]
protein stability index: 2.63
//
Sequence Text: GMGLTGTMGMGMPNIAMTSGTVQP [CLINT1]
protein stability index: 3.69
//
Sequence Text: RSVSEPRDQHPQPSLGDSLESIPS [RTN2]
protein stability index: 5.17
//
Sequence Text: DYFISYGIEHAQCVPPSEFSEPSF [ETS1]
protein stability index: 2.67
//
Sequence Text: DRGSCVSTTEGIQLAKELGATYLE [RHOBTB3]
protein stability index: 4.47
//
Sequence Text: STQMFQTKRCFRLAPTFSNLLLQP [SMG5]
protein stability index: 2.12
//
Sequence Text: RRRFREKKKAIQEEEERDQALQAK [YJU2B]
protein stability index: 5.33
//
Sequence Text: GHISLRRENSSDSPKELKRRNSSS [DLC1]
protein stability index: 5.23
//
Sequence Text: YLQIFATRRSCIDESQISAEEAED [FAM189A2]
protein stability index: 3.92
//
Sequence Text: QDLKYISPEIMASVLNGKFANLIK [CDC25A]
protein stability index: 2.24
//
Sequence Text: VKARKQEIIKVTEQLIEAINNGDF [CAMK2D]
protein stability index: 2.93
//
Sequence Text: LPGRKLVSSAVSPSIIPQEDPSQQ [INTS4]
protein stability index: 5.02
//
Sequence Text: QFLGFSWIFVNLTVRFCILGKESF [HACD3]
protein stability index: 3.25
